assay: Octanol-water partition coefficient, log P of the compound; type: physicochemical; conditions: read-out: logP
Record form. Attribute: logP. Fill in for each entry.
Numbers only.

Solved entries:
N=C(N)NCCCNC(=O)[C@@H]1CCCCN1C(=O)[C@@H](CC1CCCCC1)NCC(=O)O: -0.6
CCOC(=O)[C@H](CCc1ccccc1)N[C@@H](C)C(=O)N1CCC[C@H]1C(=O)O: -1.39
CC(C)(C)NCC(O)c1cc(O)cc(O)c1 (stereo not given): -0.08
CCCCc1nc(Cl)c(CO)n1Cc1ccc(-c2ccccc2-c2nn[nH]n2)cc1: 3.74
NC(CO)C(=O)NNCc1ccc(O)c(O)c1O (stereo not given) [BENSERAZIDE]: -1.78
N=C(N)NC(=O)c1nc(Cl)c(N)nc1N [AMILORIDE]: -0.26
O=c1c(O[C@@H]2O[C@H](CO)[C@@H](O)[C@H](O)[C@H]2O)c(-c2ccc(O[C@@H]3O[C@H](CO)[C@@H](O)[C@H](O)[C@H]3O)c(O)c2)oc2cc(O)cc(O)c12: 3.24
C[C@](N)(Cc1ccc(O)c(O)c1)C(=O)O: -3

Dear reader, for each entry below, please note its logP.
1. NCCCC[C@H](N[C@@H](CCc1ccccc1)C(=O)O)C(=O)N1CCC[C@H]1C(=O)O [LISINOPRIL ANHYDROUS]
2. N[C@@H](Cc1ccc(O)c(O)c1)C(=O)O

-2.86
-3

---

Record form. Attribute: Daq. Fill in for each entry.
settings: caco-2
Answers are plain numbers, in ×10⁻⁶ cm2/s.

Solved entries:
C[C@H](N[C@@H](CCc1ccccc1)C(=O)O)C(=O)N1CCC[C@H]1C(=O)O [ENALAPRILAT ANHYDROUS]: 7
CNC(=C[N+](=O)[O-])NCCSCc1ccc(CN(C)C)o1: 7.3

# lookup: Daq of NC(=O)N1c2ccccc2C=Cc2ccccc21 [CARBAMAZEPINE]
8.3

---

details: caco-2
Record form. Attribute: Daq. Fill in for each entry.
Quick note: number first, unit second.

Solved entries:
CC(C(=O)O)c1cccc(C(=O)c2ccccc2)c1 (stereo not drawn): 8 ×10⁻⁶ cm2/s
CNCCCN1c2ccccc2CCc2ccccc21: 7.9 ×10⁻⁶ cm2/s

Now let's try a different one.
# lookup: Daq of CN/C(=N/CCSCc1nc[nH]c1C)NC#N
8.1 ×10⁻⁶ cm2/s
